Reported inhibition at 100 µM values are given for each entry in this list.
Test system: PC-3 human prostate cancer
EXPERIMENT DESCRIPTION: In vitro anti-proliferative effect, CCK-8 method, PC-3
Assay type: cell-based
ASSAY SETUP: Homo sapiens; PC-3 cell strain, compound at 100 μM, CCK-8 method
MEASURED ATTRIBUTE: inhibition at 100 µM (%)

compound_structure=COc1ccc2ncnc(Nc3ccc(C(=O)Nc4ccccc4N)cc3)c2c1 measured_attribute="inhibition at 100 µM" quantity_unit=% measurement=66.7
compound_structure=COc1cc2ncnc(Nc3ccc(C(=O)Nc4ccncc4N)cc3)c2cc1OC measured_attribute="inhibition at 100 µM" quantity_unit=% measurement=15.9
compound_structure=COCCOc1cc2ncnc(Nc3ccc(C(=O)Nc4ccccc4N)cc3)c2cc1OCCOC measured_attribute="inhibition at 100 µM" quantity_unit=% measurement=8.6
compound_structure=COc1cccc2ncnc(Nc3ccc(C(=O)Nc4ccncc4N)cc3)c12 measured_attribute="inhibition at 100 µM" quantity_unit=% measurement=89.3
compound_structure=CC(=O)Nc1ccc2ncnc(Nc3ccc(C(=O)Nc4ccccc4N)cc3)c2c1 measured_attribute="inhibition at 100 µM" quantity_unit=% measurement=64.2

====

System: HDACs
EXPERIMENT DESCRIPTION: In vitro inhibition of HDACs (HDAC Inhibitor Drug Screening Kit, Biovision K340-100)
Assay type: biochemical
ASSAY SETUP: 40 μM
MEASURED ATTRIBUTE: Inhibition percentage (%) towards HDACs

compound_structure=COC(=O)Cc1ccc2ncnc(Nc3ccc(C(=O)Nc4ccccc4N)cc3)c2c1 measurement=19.9%
compound_structure=COc1cccc2c(NCc3ccc(C(=O)Nc4cc(F)ccc4N)cc3)ncnc12 measurement=10.1%
compound_structure=COc1cc2ncnc(Nc3ccc(C(=O)Nc4cc(-c5ccco5)ccc4N)cc3)c2cc1OC measurement=20.5%
compound_structure=CC(=O)Nc1ccc2ncnc(Nc3ccc(C(=O)Nc4ccccc4N)cc3)c2c1 measurement=10.1%

FYI, the data here is from patent US9034886B2.
